# Assay summary: Toxicity in po dosed BNX mouse xenografted with human RL cells assessed as maximum tolerated dose
# Type: organism-based
# Assay conditions: in vivo
Metric: MTD

Which value of MTD has been reported for `CCOc1cc(C(=O)N[C@@H](COC)C(=O)N[C@@H](COC)C(=O)N[C@@H](Cc2ccccc2)C(=O)[C@@]2(C)CO2)no1` in the records?
20 mg/kg

====

# Assay summary: Metabolic stability in human liver microsomes assessed as extraction ratio at 1 uM
# Format: ADME, Microsome
Metric: hepatic extraction ratio at 1 µM (dimensionless ratio)
One number for each entry, in dimensionless ratio.

These recorded examples may help you get a feel for the data.
Smiles code | Display unit | hepatic extraction ratio at 1 µM
COC[C@H](NC(=O)c1cc(C)on1)C(=O)N[C@@H](COC)C(=O)N[C@@H](CC(C)C)C(=O)[C@@]1(C)CO1 | dimensionless ratio | 0.54
COC[C@H](NC(=O)c1cc(C)on1)C(=O)N[C@@H](COC)C(=O)N[C@@H](Cc1ccccc1)C(=O)[C@@]1(C)CO1 | dimensionless ratio | 0.59
COC[C@H](NC(=O)c1cc(C)on1)C(=O)N[C@@H](Cc1cscn1)C(=O)N[C@@H](CC(C)C)C(=O)[C@@]1(C)CO1 | dimensionless ratio | 0.85
COC[C@H](NC(=O)c1cc(C)on1)C(=O)N[C@@H](C)C(=O)N[C@@H](CC(C)C)C(=O)[C@@]1(C)CO1 | dimensionless ratio | 0.28
COC[C@H](NC(=O)c1ccon1)C(=O)N[C@@H](COC)C(=O)N[C@@H](Cc1ccccc1)C(=O)[C@@]1(C)CO1 | dimensionless ratio | 0.42

Give hepatic extraction ratio at 1 µM for each listed item.
1. COC[C@H](NC(=O)c1cc(C)on1)C(=O)N[C@H](C(=O)N[C@@H](CC(C)C)C(=O)[C@@]1(C)CO1)C(C)C
2. COC[C@H](NC(=O)c1ccon1)C(=O)N[C@@H](COC)C(=O)N[C@@H](CC(C)C)C(=O)[C@@]1(C)CO1
3. COC[C@H](NC(=O)c1cc(C)on1)C(=O)N[C@@H](Cc1ccsc1)C(=O)N[C@@H](CC(C)C)C(=O)[C@@]1(C)CO1
4. COC[C@H](NC(=O)c1cc(C)on1)C(=O)N[C@@H](CC(C)C)C(=O)N[C@@H](CC(C)C)C(=O)[C@@]1(C)CO1

1. 0.63
2. 0.16
3. 0.87
4. 0.83

Give hepatic extraction ratio at 1 µM for each listed item.
1. CCOc1cc(C(=O)N[C@@H](COC)C(=O)N[C@@H](COC)C(=O)N[C@@H](CC(C)C)C(=O)[C@@]2(C)CO2)no1
2. COC[C@H](NC(=O)c1cc(OC)no1)C(=O)N[C@@H](COC)C(=O)N[C@@H](CC(C)C)C(=O)[C@@]1(C)CO1
3. COC[C@H](NC(=O)c1cc(C)on1)C(=O)N[C@@H](CC1CCCCC1)C(=O)N[C@@H](CC(C)C)C(=O)[C@@]1(C)CO1
4. CCOc1cc(C(=O)N[C@@H](COC)C(=O)N[C@@H](COC)C(=O)N[C@@H](Cc2ccccc2)C(=O)[C@@]2(C)CO2)no1

1. 0.69
2. 0.4
3. 0.94
4. 0.77

Give hepatic extraction ratio at 1 µM for each listed item.
1. COC[C@H](NC(=O)c1cc(C)on1)C(=O)N[C@@H](Cc1ccccc1)C(=O)N[C@@H](CC(C)C)C(=O)[C@@]1(C)CO1
2. COC[C@H](NC(=O)c1cc(OC)no1)C(=O)N[C@@H](COC)C(=O)N[C@@H](Cc1ccccc1)C(=O)[C@@]1(C)CO1

1: 0.91; 2: 0.64
